Biological target: Cyclophilin B (CypB) (Homo sapiens (Human))
Sequence (P23284 34-216): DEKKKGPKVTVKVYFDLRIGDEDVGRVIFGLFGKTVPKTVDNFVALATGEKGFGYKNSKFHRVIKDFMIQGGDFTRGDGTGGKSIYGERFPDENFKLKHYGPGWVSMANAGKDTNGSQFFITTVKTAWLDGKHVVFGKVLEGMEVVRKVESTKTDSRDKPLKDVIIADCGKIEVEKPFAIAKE
Experiment: Cyclophilin PPIase enzymatic assay (chymotrypsin coupled), CypB
Format: biochemical
Classify as follows. Reported inhibition at 100 µM greater than or equal to 20%: label 1. Reported inhibition at 100 µM below: label 0.

In plain terms: is recorded inhibition at 100 µM at least 20% for CN(C(=O)CNC(=O)NCc1ccc(N)nc1)C1CCCCC1 [Compound F595] ?
label 1

In plain terms: is recorded inhibition at 100 µM at least 20% for CCOC(=O)C(Cc1cccc(OCc2ccccc2)c1)NC(=O)NCc1ccc(N)cc1 (centres unmarked) [Compound F611] ?
label 1

In plain terms: is recorded inhibition at 100 µM at least 20% for Nc1ccc(CNC(=O)Nc2cnc3sccn3c2=O)cc1 [Compound F608] ?
label 1

In plain terms: is recorded inhibition at 100 µM at least 20% for CCOC(=O)CNC(=S)NCc1ccc(N)nc1 [Compound F569] ?
label 0

These entries and their values trace back to patent US8901295B2.
